As shown below, each of these compounds has a reported relative viability value.
Tested on: LC-2-ad
test: relative viability (nuclei count vs DMSO), 5 days (fraction); higher = more cells survive
recordedConditions: first compound 0.005 µM

Nc1ccn([C@@H]2O[C@H](CO)[C@@H](O)[C@@H]2O)c(=O)n1 [Cytarabine] + O=C(c1cc(Cc2n[nH]c(=O)c3ccccc23)ccc1F)N1CCN(C(=O)C2CC2)CC1 [Olaparib] (partner 8 µM) ... 0.697

// field: relative viability; key: COc1cc2nccc(Oc3ccc(NC(=O)Nc4cc(C)on4)c(Cl)c3)c2cc1OC [Tivozanib] + COc1cccc2cc(-c3nc([C@H]4CC[C@H](C(=O)O)CC4)n4ncnc(N)c34)[nH]c12 [OSI-027] (partner 0.5 µM) ; value = 0.784

Per the record, COc1cc2nccc(Oc3ccc(NC(=O)Nc4cc(C)on4)c(Cl)c3)c2cc1OC [Tivozanib] + NC(=O)Nc1cc(-c2cccc(F)c2)sc1C(=O)N[C@H]1CCCNC1 [AZD7762] (partner 0.2 µM) has relative viability of 0.821

response.value for Nc1ccn([C@@H]2O[C@H](CO)[C@@H](O)[C@@H]2O)c(=O)n1 [Cytarabine] + COc1cc2c(Oc3ccc(NC(=O)C4(C(=O)Nc5ccc(F)cc5)CC4)cc3F)ccnc2cc1OCCCN1CCOCC1 [Foretinib] (partner 0.25 µM) (field: relative viability) = 0.899

###

Tested on: SK-LU-1
test: relative viability (nuclei count vs DMSO), 5 days (fraction); higher = more cells survive
recordedConditions: first compound 158.11 µM
Catalogue of relative viability readings, one per entry.
Just the number.

O=C(O)CCCCC(CCSCc1ccccc1)SCc1ccccc1 (stereo not given) [CPI-613] + CS(=O)(=O)N1CCN(Cc2cc3nc(-c4cccc5[nH]ncc45)nc(N4CCOCC4)c3s2)CC1 [Pictilisib] (partner 1 µM) ... 0.46

Item: O=C(O)CCCCC(CCSCc1ccccc1)SCc1ccccc1 (stereo not given) [CPI-613] + CC(=O)c1c(C)c2cnc(Nc3ccc(N4CCNCC4)cn3)nc2n(C2CCCC2)c1=O [Palbociclib] (partner 0.5 µM) | relative viability: 0.32

The reported value for O=C(O)CCCCC(CCSCc1ccccc1)SCc1ccccc1 (stereo not given) [CPI-613] + O=C(CCCCCCC(=O)Nc1ccccc1)NO [Vorinostat] (partner 1 µM) in terms of relative viability is 0.206

Short answer for O=C(O)CCCCC(CCSCc1ccccc1)SCc1ccccc1 (stereo not given) [CPI-613] + Nc1ncn([C@H]2C[C@H](O)[C@@H](CO)O2)c(=O)n1 [Decitabine] (partner 2 µM) : relative viability was 0.314

Record O=C(O)CCCCC(CCSCc1ccccc1)SCc1ccccc1 (stereo not given) [CPI-613] + Cc1nc(NC(=O)N2CCC[C@H]2C(N)=O)sc1-c1ccnc(C(C)(C)C(F)(F)F)c1 [Alpelisib] (partner 2 µM) , field relative viability: 0.175

###

# Lookup of reported relative viability keyed by entry
System: NCI-H1755
test: relative viability (nuclei count vs DMSO), 5 days (fraction); higher = more cells survive
recordedConditions: first compound 2.53 µM
Answer with a bare number; do not write a unit.

Solved entries:
Cc1cnc(-c2cnc(NCCNc3ccc(C#N)cn3)nc2-c2ccc(Cl)cc2Cl)[nH]1 + CC(=O)c1c(C)c2cnc(Nc3ccc(N4CCNCC4)cn3)nc2n(C2CCCC2)c1=O [Palbociclib] (partner 0.5 µM) ... 0.438
Cc1cnc(-c2cnc(NCCNc3ccc(C#N)cn3)nc2-c2ccc(Cl)cc2Cl)[nH]1 + COc1cccc2cc(-c3nc([C@H]4CC[C@H](C(=O)O)CC4)n4ncnc(N)c34)[nH]c12 [OSI-027] (partner 0.5 µM) ... 0.756

Reported NCI-H1755 relative viability for item O=c1[nH]c2ccccc2n1C1CCN(CCCC(c2ccc(F)cc2)c2ccc(F)cc2)CC1 [Pimozide] + COc1cccc2cc(-c3nc([C@H]4CC[C@H](C(=O)O)CC4)n4ncnc(N)c34)[nH]c12 [OSI-027] (partner 0.5 µM) was 0.597

Kindly note: NCI-H1755, O=c1[nH]c2ccccc2n1C1CCN(CCCC(c2ccc(F)cc2)c2ccc(F)cc2)CC1 [Pimozide] + CC(=O)c1c(C)c2cnc(Nc3ccc(N4CCNCC4)cn3)nc2n(C2CCCC2)c1=O [Palbociclib] (partner 0.5 µM) , relative viability value reported: 0.416

The reported relative viability value, NCI-H1755, for O=c1[nH]c2ccccc2n1C1CCN(CCCC(c2ccc(F)cc2)c2ccc(F)cc2)CC1 [Pimozide] + COc1cc2c(Oc3ccc(NC(=O)C4(C(=O)Nc5ccc(F)cc5)CC4)cc3F)ccnc2cc1OCCCN1CCOCC1 [Foretinib] (partner 0.25 µM) reads 0.948

Param item: Cc1cnc(-c2cnc(NCCNc3ccc(C#N)cn3)nc2-c2ccc(Cl)cc2Cl)[nH]1 + COc1cc2c(Oc3ccc(NC(=O)C4(C(=O)Nc5ccc(F)cc5)CC4)cc3F)ccnc2cc1OCCCN1CCOCC1 [Foretinib] (partner 0.25 µM) ; param system: NCI-H1755; output relative viability: 0.972

Entry Cc1cnc(-c2cnc(NCCNc3ccc(C#N)cn3)nc2-c2ccc(Cl)cc2Cl)[nH]1 + CC(C)C[C@H](NC(=O)[C@H](Cc1ccccc1)NC(=O)c1cnccn1)B(O)O [Bortezomib] (partner 0.002 µM) under NCI-H1755 had relative viability of 0.994

Given the molecule Cc1cnc(-c2cnc(NCCNc3ccc(C#N)cn3)nc2-c2ccc(Cl)cc2Cl)[nH]1 + NC(=O)Nc1cc(-c2cccc(F)c2)sc1C(=O)N[C@H]1CCCNC1 [AZD7762] (partner 0.2 µM) and test system NCI-H1755, the measured relative viability is 0.443

Assay NCI-H1755, sample O=c1[nH]c2ccccc2n1C1CCN(CCCC(c2ccc(F)cc2)c2ccc(F)cc2)CC1 [Pimozide] + CCNC(=O)c1noc(-c2cc(C(C)C)c(O)cc2O)c1-c1ccc(CN2CCOCC2)cc1 [Luminespib] (partner 0.01 µM) , relative viability read: 0.526

These measurements were taken from the supplement of paper PMC10307832.
